Tested on: BDF1 mice, B16 melanoma ip, median survival T/C
test method notes: NCI In Vivo Anticancer Drug Screen. Data for tumor model B16 Melanoma (intraperitoneal) in B6D2F1 (BDF1) mice
measurement context: endpoint: median survival time; dose: 400.0 mg/kg/injection; schedule: Q01DX009 (ip); vehicle: saline with Tween-80; higher = longer survival
Inconclusive results and toxic doses are left out.
Let's look at some molecules and their measured T/C.

Below: 3 molecules and their reported T/C.
* CC1=NN(c2ccccc2)C(=O)C1CC1C(=O)N(c2ccccc2)N=C1C (centres undefined) | 89 % of control
* CCCC(O)C(CC)CO (centres undefined) | 115 % of control
* COC(=O)C(Br)C(Br)c1ccccc1 (centres undefined) | 90 % of control

Reported T/C ( CC(SC(C)c1ccccc1)c1ccccc1 (centres undefined) ) = 88 % of control

* * *

Test system: BDF1 mice, B16 melanoma ip, median survival T/C
test method notes: NCI In Vivo Anticancer Drug Screen. Data for tumor model B16 Melanoma (intraperitoneal) in B6D2F1 (BDF1) mice
measurement context: endpoint: median survival time; dose: 400.0 mg/kg/injection; schedule: Q01DX009 (ip); vehicle: Klucel (hydroxypropylcellulose) (HPC); higher = longer survival
Toxic doses and inconclusive results are not listed.
readout label: T/C

Below: 5 molecules and their reported T/C.
- Cc1cccc(NS(=O)(=O)c2ccccc2)c1C: 88 % of control
- CCOC(CNC(=O)OCc1ccccc1)OCC: 90 % of control
- CSc1ccc(NC(=O)Nc2ccccc2)cc1: 95 % of control
- O=C(O)CSCCc1ccccc1: 100 % of control
- O=C(Nc1ccccc1)OCC(Cl)(Cl)Cl: 102 % of control

Reported T/C ( Cc1ccc(C2NC(=O)c3ccccc3N2)s1 (configuration not stated) ) = 96 % of control

Reported T/C ( c1ccc(-c2nnc(-c3ccccn3)nn2)nc1 ) = 96 % of control

* * *

Test system: BDF1 mice, B16 melanoma ip, median survival T/C
test method notes: NCI In Vivo Anticancer Drug Screen. Data for tumor model B16 Melanoma (intraperitoneal) in B6D2F1 (BDF1) mice
measurement context: endpoint: median survival time; dose: 100.0 mg/kg/injection; schedule: Q01DX009 (ip); vehicle: other; higher = longer survival
Inconclusive results and toxic doses are left out.
readout label: T/C

Reported T/C ( CCCCCCCCCCCC(=O)CC ) = 96 % of control

Reported T/C ( C=CCOC(=O)C1CC(C(=O)OCC=C)C(C(=O)OCC=C)C1C(=O)OCC=C (stereo not given) ) = 105 % of control

Reported T/C ( [N-]=[N+]=CC(=O)NCC(=O)NN ) = 106 % of control

Reported T/C ( O=CN(c1ccccc1)c1ccccc1 ) = 100 % of control

Reported T/C ( NC(=O)CC(N)C(=O)O (stereo not given) ) = 96 % of control

* * *

Let's look at some compounds and their measured T/C.
Tested on: BDF1 mice, B16 melanoma ip, median survival T/C
test method notes: NCI In Vivo Anticancer Drug Screen. Data for tumor model B16 Melanoma (intraperitoneal) in B6D2F1 (BDF1) mice
measurement context: endpoint: median survival time; dose: 10.0 mg/kg/injection; schedule: Q01DX009 (ip); vehicle: saline; higher = longer survival
Inconclusive results and toxic doses are left out.

Below: 4 compounds and their reported T/C.
• c1ccc(OCCC[P+](c2ccccc2)(c2ccccc2)c2ccccc2)cc1 = 105 % of control
• O=C(O)c1cc(S(=O)O)ccc1O = 103 % of control
• NC(=O)c1cc(N2CC2)c([N+](=O)[O-])cc1[N+](=O)[O-] = 109 % of control
• S=c1nc[nH]c2nc[nH]c12 = 110 % of control

Reported T/C ( CCNCc1cc(Nc2nc(NC3CCC(N(C)C)CC3)c3ccccc3n2)ccc1OC (stereo not drawn) ) = 114 % of control

Reported T/C ( COc1c2c(cc3c1OCO3)CCN(C)C2 ) = 95 % of control

Reported T/C ( COc1cc([C@@H]2c3cc4c(cc3[C@@H](OC3OC5COC(C)OC5C(O)C3O)[C@H]3COC(=O)[C@H]23)OCO4)cc(OC)c1O (stereo partly drawn) ) = 285 % of control

Reported T/C ( C[C@@H]1C[C@@]2(O[C@@H]2C)C(=O)O[C@@H]2CCN3CC=C(COC(=O)[C@]1(C)O)[C@H]23 ) = 102 % of control

Attribution: PubChem BioAssay AID192
